Listing of recorded activity change, negative = inhibition by entry.
assay: AP1 Signaling Pathway (AID 357); conditions: ME-180 (cervical carcinoma) AP-1-bla reporter, EGF-induced, beta-lactamase ratio, 5 h; at 7.69 µM (top of the series) unless noted;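 also: ME-180 reporter cells stimulated with EGF at its EC50 level; % is scaled to controls: 0 for no effect and ±100 for the full control effect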
Inconclusive results are not listed.
Reported property: activity change, negative = inhibition (%)

> print(dat)
                            structure.string  quantity.unit  assay.result
 1  CCNc1ncc2nc(-c3ccccc3)c(=O)n(-c3ccc(OC)cc3)c2n1              %          27.6
 2  O=c1c(CCc2ccccc2)nc2cnc(Nc3ccccc3)nc2n1Cc1cccs1              %         -26.7
 3  O=C(Oc1ccccc1)N1CCC[C@@]2(CCN(c3ccccc3)C2)C1              %         -15.6
 4  COc1ccc2[nH]cc(CCNc3ncncc3-c3cccc(NS(C)(=O)=O)c3)c2c1              %         -19.1
 5  COc1ccc(CNc2cc(-c3ccccc3CN(C)C)ncn2)c(OC)c1              %        -0.546
 6  COc1ccc(-n2c(=O)c(-c3cccs3)nc3cnc(Nc4ccccc4)nc32)cc1              %         -7.98
 7  COc1ncc2nc(-c3ccc(F)cc3)c(=O)n(Cc3ccc(F)cc3)c2n1              %          1.72
 8         COc1ncc2nc(C)c(=O)n(Cc3cccs3)c2n1              %         -2.91
 9  COCCn1c(=O)c(-c2cccc(C#N)c2)nc2cnc(Nc3ccccc3)nc21              %         -6.21
10  Cn1cccc1C(=O)N1CCC2(CCN(Cc3ccncc3)CC2)CC1              %         -3.94

* * *

target: Dual specificity protein kinase CLK4 (Homo sapiens); assay: qHTS Assay for Inhibitors of CDC-like Kinase 4 (ADP-Glo Assay) (AID 1771); details: recombinant CLK4, ADP-Glo luminescence; series mostly up to 80 µM; also: nearly all actives have a fitted effect of over 70% in size
Records with an inconclusive call do not appear. The source made the active and inactive calls. Calls come from the whole dose curve; as a rule, active = well fitted inhibition curve with a large enough effect; inconclusive = small, poorly fitted or top-dose-only effect; inactive = flat fitted curve, though single readings scatter.
Outcomes: label 1 = active, label 0 = inactive

> print(dat)
                            structure.string  qualitative.label
 1  COc1ccc(Oc2ncc3nc(-c4cn(C)c5ccccc45)c(=O)n(C)c3n2)cc1            label 0
 2  O=c1c(-c2cc(F)cc(F)c2)nc2cnc(N3CCOCC3)nc2n1CCc1ccccc1            label 0
 3       COc1cccc(-c2ccc3ncnc(NC4CC4)c3c2)c1            label 1
 4  COCCn1c(=O)c(-c2ccc(OC)cc2)nc2cnc(N3CCOCC3)nc21            label 0
 5  CCNc1ncc2nc(-c3ccc(F)cc3)c(=O)n(Cc3ccc(F)cc3)c2n1            label 0
 6        c1nc(N2CCOCC2)c2cc(-c3ccoc3)ccc2n1            label 1
 7       c1ccc(Nc2ncnc3ccc(-c4ccoc4)cc23)cc1            label 1
 8  CN(C)c1ncc2nc(-c3cccc(C#N)c3)c(=O)n(C)c2n1            label 0
 9         COCCNc1ncnc2ccc(-c3c(C)noc3C)cc12            label 1
10         COc1cccc(-c2nccc(NCc3cccnc3)n2)c1            label 1
11  O=c1c(-c2ccccc2)nc2cnc(N3CCOCC3)nc2n1Cc1ccc(F)cc1            label 0
